B1: WDFY2 (parent)
chain: FWNFKQMWDSKKIGLRQHHCRKCG

Variants of: B1
Experimental protocol: protein stability index of a GFP-peptide fusion (GPS, HEK-293T) (PSI 1-6); higher = more stable;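 further: lentivirally expressed fusions sorted by FACS into six bins by GFP to DsRed ratio, PSI derived from sequencing read proportions per bin multiplied by bin number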
Experimental setup: c terminus: a fixed tail appended
Measured property: protein stability index

> print(dat)
    mutation.notation        measured.property  recorded.number
 1               K22H  protein stability index             1.23
 2               H18S  protein stability index             1.84
 3               R21M  protein stability index             2.21
 4                M7L  protein stability index                2
 5                M7V  protein stability index             1.71
 6               C23V  protein stability index             1.79
 7               K22I  protein stability index             4.49
 8                W2P  protein stability index             2.58
 9                W8T  protein stability index             2.07
10                F1C  protein stability index             2.65
11               S10D  protein stability index             1.75
12               K12T  protein stability index             2.08
13                Q6T  protein stability index             1.82
14               Q17D  protein stability index              1.9
15                Q6F  protein stability index             1.53
16                W8K  protein stability index             2.69
17               K22S  protein stability index             2.72
18                F4C  protein stability index             2.36
19               R16E  protein stability index             2.92
20               K12V  protein stability index             2.42
21                W8V  protein stability index             2.22
22                W2A  protein stability index             1.86
23                D9V  protein stability index             3.81
24                W2T  protein stability index             2.12
25               Q17Y  protein stability index             2.12
26                N3C  protein stability index             2.08
27               L15M  protein stability index             1.97
28               C20N  protein stability index             2.31
29               G14C  protein stability index             2.45
30               K11I  protein stability index              2.5
31                K5S  protein stability index             1.52
32               G14W  protein stability index             1.91
33               K11E  protein stability index             2.61
34               K11Y  protein stability index             2.71
35               C20T  protein stability index             2.28
36               G14K  protein stability index             2.14
37                Q6G  protein stability index             2.79
38               H18L  protein stability index             1.76
39               K11N  protein stability index              2.7
40               K22V  protein stability index              1.7
41               R21N  protein stability index             2.46
42                F1E  protein stability index             3.02
43                N3F  protein stability index             2.05
44               L15S  protein stability index             2.25
45                N3H  protein stability index             1.77
46               K12R  protein stability index             1.71
47               Q17A  protein stability index             2.32
48                M7Q  protein stability index             2.21
49                Q6D  protein stability index             1.91
50                D9Q  protein stability index             1.84
51               R21T  protein stability index             1.71
52               R21K  protein stability index             2.01
53               C23R  protein stability index             1.79
54               C20E  protein stability index             2.47
55               G24K  protein stability index             1.98
56               I13D  protein stability index             2.55
57                K5P  protein stability index             1.98
58               L15R  protein stability index             2.61
59                W8A  protein stability index             2.12
60               R21L  protein stability index              1.1
61               Q17I  protein stability index             2.84
62               L15T  protein stability index             2.01
63                D9F  protein stability index             1.54
64                N3E  protein stability index             2.12
65               I13E  protein stability index             2.28
66               I13S  protein stability index             2.54
67                W8R  protein stability index             2.58
68                F1L  protein stability index             1.44
69               H19Y  protein stability index             1.76
70               K11V  protein stability index             1.99
71               K22E  protein stability index             1.65
72               K22A  protein stability index             1.09
73               K12C  protein stability index             2.79
74                Q6N  protein stability index             2.27
75               R16M  protein stability index             1.94
76                F4Y  protein stability index             1.99
77                D9T  protein stability index                1
78                W2L  protein stability index             1.93
79               R16T  protein stability index             1.67
80               K22Q  protein stability index             2.21
